System: Normolipemic rats
Test summary: Hypolipemic activity in normolipemic rats
Type: in vivo, rat (Sprague Dawley Nos male rats)
Experimental setup: 0.37 mM/kg/p.o. × 4 days
Quantity: Liver Weight, % different from control

Use the examples below as a reference point.
Compound: CSc1ccc2cc(C(O)C(C)N3CCN(C(=O)c4ccco4)CC3)ccc2c1 (stereo not shown)
Liver Weight, % different from control: +9.2%

Compound: CSc1ccc2cc(C(O)C(C)N3CCN(C(=O)c4cccnc4)CC3)ccc2c1 (stereo not shown)
Liver Weight, % different from control: +21.6%

Compound: COc1ccc2cc(C(O)C(C)N3CCN(c4ccccc4)CC3)ccc2c1 (stereo not shown) [MG 38068]
Liver Weight, % different from control: +0.3%

The record that follows has no Liver Weight, % different from control shown yet.
May I ask what Liver Weight, % different from control has been recorded for COc1ccc2cc(C(O)C(C)N3CCN(c4ccccc4)CC3)ccc2c1 (stereo not shown) [MG 38088] ?
+3.4%

---

Listed here: items and their measured CHOL-HDL, % different from control.
System: Normolipemic rats
Test summary: Hypolipemic activity in normolipemic rats
Assay type: in vivo, rat (Sprague Dawley Nos male rats)
Experimental setup: 0.37 mM/kg/p.o. × 4 days

May I ask what CHOL-HDL, % different from control has been recorded for CSc1ccc2cc(C(O)C(C)N3CCN(C(=O)c4cccnc4)CC3)ccc2c1 (stereo not shown) ?
+31.7%

Cool, now CSc1ccc2cc(C(O)C(C)N3CCN(C(=O)c4ccco4)CC3)ccc2c1 (stereo not shown)
+46.5%

Cool, now COc1ccc2cc(C(O)C(C)N3CCN(c4ccccc4)CC3)ccc2c1 (stereo not shown) [MG 38088]
+5.4%

Cool, now COc1ccc2cc(C(O)C(C)N3CCN(c4ccccc4)CC3)ccc2c1 (stereo not shown) [MG 38068]
+32.9%

---

Tested on: Normolipemic rats
Test summary: Hypolipemic activity in normolipemic rats
Assay type: in vivo, rat (Sprague Dawley Nos male rats)
Experimental setup: 0.185 mM/kg/p.o. × 4 days
Listed here: items and their measured Liver Weight, % different from control.

Molecule: COc1ccc2cc(C(O)C(C)N3CCN(c4ccccc4)CC3)ccc2c1 (centres unmarked) [MG 38068]
Quantity: Liver Weight, % different from control
Readout value: +2.6%
//
Molecule: COc1ccc2cc(C(O)C(C)N3CCC(NC(=O)c4ccccc4)CC3)ccc2c1 (centres unmarked) [MG 38127]
Quantity: Liver Weight, % different from control
Readout value: +3.3%
//
Molecule: COc1ccc2cc(C(O)C(C)N3CCN(c4ccccc4)CC3)ccc2c1 (centres unmarked) [MG 38088]
Quantity: Liver Weight, % different from control
Readout value: 0%
//
Molecule: CSc1ccc2cc(C(O)C(C)N3CCN(C(=O)c4cccnc4)CC3)ccc2c1 (centres unmarked) [MG 28453]
Quantity: Liver Weight, % different from control
Readout value: +2.8%

The record that follows has no Liver Weight, % different from control shown yet.
May I ask what Liver Weight, % different from control has been recorded for COc1ccc2cc(C(O)C(C)N3CCC(NC(=O)c4ccccc4)CC3)ccc2c1 (centres unmarked) [MG 38105] ?
+4.8%

---

Listed here: items and their measured TG, % different from control.
Tested on: Normolipemic rats
Test summary: Hypolipemic activity in normolipemic rats
Format: in vivo, rat (Sprague Dawley Nos male rats)
Experimental setup: 0.185 mM/kg/p.o. × 4 days
Return type: number; implicit unit %.

Molecule: COc1ccc2cc(C(O)C(C)N3CCC(NC(=O)c4ccccc4)CC3)ccc2c1 (centres unmarked) [MG 38105]
TG, % different from control (%): -70.6

May I ask what TG, % different from control has been recorded for COc1ccc2cc(C(O)C(C)N3CCN(c4ccccc4)CC3)ccc2c1 (centres unmarked) [MG 38088] ?
-70.5

Cool, now COc1ccc2cc(C(O)C(C)N3CCN(c4ccccc4)CC3)ccc2c1 (centres unmarked) [MG 38068]
-45.0

Cool, now COc1ccc2cc(C(O)C(C)N3CCC(NC(=O)c4ccccc4)CC3)ccc2c1 (centres unmarked) [MG 38127]
-81.7

Cool, now CSc1ccc2cc(C(O)C(C)N3CCN(C(=O)c4cccnc4)CC3)ccc2c1 (centres unmarked)
-36.4
